Attribution: PubChem BioAssay AID434970

Tested on: intestinal alkaline phosphatase [Mus musculus]
Test: mouse intestinal phosphatase enzyme activation – biochemical, luminescence, single concentration, confirmation (AID 434970)
Conditions: purified mouse IAP, CDP-Star luminescence, 30 min, at 10 µM
The campaign covered roughly 11,000 compounds. About 310 (2.8%) were called active. No stated cut-off is given here; in the data, active means activity change below about -85%; inactive means the rest. The sample holds actives, similar compounds and a random draw of the others, so the mix is not that of the screen.
Possible outcomes: active, inactive

>  <molecule>
Cc1ccc(C(=O)NC(Cc2ccc(C(C)(C)C)cc2)C(=O)O)cc1 (stereo unspecified)

>  <tested on>
intestinal alkaline phosphatase [Mus musculus]

>  <category label>
inactive

$$$$
>  <molecule>
Cc1ccc(Nc2nc(CSc3nnnn3C)cs2)cc1

>  <tested on>
intestinal alkaline phosphatase [Mus musculus]

>  <category label>
inactive

$$$$
>  <molecule>
Cc1cccc(NC(=O)NCCc2c[nH]c3ccccc23)c1

>  <tested on>
intestinal alkaline phosphatase [Mus musculus]

>  <category label>
inactive

$$$$
>  <molecule>
CCCNC(=O)c1ccc(SC)cc1OC

>  <tested on>
intestinal alkaline phosphatase [Mus musculus]

>  <category label>
inactive

$$$$
>  <molecule>
Cc1ccc(NC(=O)NCCCc2ccccc2)cc1

>  <tested on>
intestinal alkaline phosphatase [Mus musculus]

>  <category label>
inactive

$$$$
>  <molecule>
COc1cccc(NC(=O)NCCCCc2ccccc2)c1

>  <tested on>
intestinal alkaline phosphatase [Mus musculus]

>  <category label>
active

$$$$
>  <molecule>
Fc1cccc(NC(=S)NCc2ccccc2Cl)c1

>  <tested on>
intestinal alkaline phosphatase [Mus musculus]

>  <category label>
inactive

$$$$
>  <molecule>
CC(CCc1ccccc1)NC(=O)c1ccncc1 (stereo unspecified)

>  <tested on>
intestinal alkaline phosphatase [Mus musculus]

>  <category label>
inactive

$$$$
>  <molecule>
COc1cccc(NS(=O)(=O)Cc2ccccc2)c1

>  <tested on>
intestinal alkaline phosphatase [Mus musculus]

>  <category label>
inactive

$$$$
>  <molecule>
S=c1[nH]ncn1/N=C/c1ccc(N2CCOCC2)cc1

>  <tested on>
intestinal alkaline phosphatase [Mus musculus]

>  <category label>
inactive

$$$$
>  <molecule>
Cc1cccc(NC(=O)NCCCCc2ccccc2)c1

>  <tested on>
intestinal alkaline phosphatase [Mus musculus]

>  <category label>
active

$$$$
